- targetUnderTest: T1, hiR1-FL-WT-T7 (human, UniProt Q96CC6 1-855)
- T1 construct: on MEF-DKO cells
- T1 sequence: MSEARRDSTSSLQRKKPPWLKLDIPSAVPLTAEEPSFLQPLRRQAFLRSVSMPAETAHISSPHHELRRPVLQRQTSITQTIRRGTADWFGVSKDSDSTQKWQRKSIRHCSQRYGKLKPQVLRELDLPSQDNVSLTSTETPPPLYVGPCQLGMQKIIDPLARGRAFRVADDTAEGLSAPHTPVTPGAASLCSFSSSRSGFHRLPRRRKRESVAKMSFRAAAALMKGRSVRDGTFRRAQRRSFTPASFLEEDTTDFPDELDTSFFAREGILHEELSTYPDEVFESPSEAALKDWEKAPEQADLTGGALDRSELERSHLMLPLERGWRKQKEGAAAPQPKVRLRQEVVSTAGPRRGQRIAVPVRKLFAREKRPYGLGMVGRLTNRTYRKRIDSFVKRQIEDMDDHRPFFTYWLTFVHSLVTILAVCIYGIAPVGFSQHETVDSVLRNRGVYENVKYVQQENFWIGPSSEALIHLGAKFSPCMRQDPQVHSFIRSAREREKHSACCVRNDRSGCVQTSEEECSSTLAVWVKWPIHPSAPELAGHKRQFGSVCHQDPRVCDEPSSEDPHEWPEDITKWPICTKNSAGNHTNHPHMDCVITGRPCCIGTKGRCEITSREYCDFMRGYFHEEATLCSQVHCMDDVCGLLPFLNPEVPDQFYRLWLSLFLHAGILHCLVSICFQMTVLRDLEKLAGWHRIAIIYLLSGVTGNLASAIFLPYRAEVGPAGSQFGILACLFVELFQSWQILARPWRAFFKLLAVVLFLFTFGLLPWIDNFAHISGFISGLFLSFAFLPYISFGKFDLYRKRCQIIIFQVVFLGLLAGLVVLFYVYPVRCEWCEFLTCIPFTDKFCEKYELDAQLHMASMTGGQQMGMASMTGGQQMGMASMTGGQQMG
- procedureText: FACS, MEF-DKO cells, 3 µg/ml
Here the recorded loss of binding vs wild type is given for each entry.

// solved cases for loss of binding vs wild type follow
binder: antibody 44 (antibody, V domains shown, mouse IgG, kappa light chain; also called clone #44; purified antibody 44) VH: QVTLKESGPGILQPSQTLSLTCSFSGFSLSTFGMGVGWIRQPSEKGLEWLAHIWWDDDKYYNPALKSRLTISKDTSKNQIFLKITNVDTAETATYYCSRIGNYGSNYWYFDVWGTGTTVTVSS VL: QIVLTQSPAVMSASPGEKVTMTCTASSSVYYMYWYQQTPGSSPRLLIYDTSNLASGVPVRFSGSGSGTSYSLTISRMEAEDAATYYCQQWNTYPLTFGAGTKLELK
loss of binding vs wild type: ≥ 95%

binder: antibody 5 (antibody, V domains shown, mouse IgG, kappa light chain; also called clone #5; purified antibody 5) VH: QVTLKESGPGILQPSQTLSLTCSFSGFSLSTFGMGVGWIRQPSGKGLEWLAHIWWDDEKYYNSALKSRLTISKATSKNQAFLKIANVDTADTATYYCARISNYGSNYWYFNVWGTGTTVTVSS VL: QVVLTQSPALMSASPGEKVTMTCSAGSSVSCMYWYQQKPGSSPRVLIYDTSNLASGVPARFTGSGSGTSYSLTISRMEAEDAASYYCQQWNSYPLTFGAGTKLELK
loss of binding vs wild type: ≥ 95%

binder: antibody 16 (antibody, V domains shown, mouse IgG, kappa light chain; also called clone #16; purified antibody 16) VH: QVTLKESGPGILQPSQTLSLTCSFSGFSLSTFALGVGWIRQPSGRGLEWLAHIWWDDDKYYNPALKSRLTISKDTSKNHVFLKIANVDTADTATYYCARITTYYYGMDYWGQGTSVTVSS VL: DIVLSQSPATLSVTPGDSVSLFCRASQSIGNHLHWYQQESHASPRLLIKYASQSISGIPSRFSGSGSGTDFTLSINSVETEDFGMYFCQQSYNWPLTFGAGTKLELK
loss of binding vs wild type: ≥ 95%

binder: antibody 3 (antibody, V domains shown, mouse IgG, kappa light chain; also called clone #3; purified antibody 3) VH: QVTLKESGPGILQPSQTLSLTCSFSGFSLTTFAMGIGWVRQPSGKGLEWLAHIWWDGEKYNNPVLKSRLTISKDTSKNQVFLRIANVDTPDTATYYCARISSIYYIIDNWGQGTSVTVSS VL: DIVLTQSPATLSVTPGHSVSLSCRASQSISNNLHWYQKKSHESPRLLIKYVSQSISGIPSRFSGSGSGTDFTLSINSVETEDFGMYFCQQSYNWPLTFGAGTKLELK
loss of binding vs wild type: ≥ 95%

// next entry
Reported loss of binding vs wild type for antibody 50 (antibody, V domains shown, mouse IgG, kappa light chain; also called clone #50; purified antibody 50) VH: QVQLQQSGAELVRPGASVKVSCKASGYAFSNYLIEWVKQRPGQGLEWIGVINPGSGFTKYNEKFKGKATLTADKSSSTAYMQLSSLTSEDSAVYFCARGLYRAMDYWGQGTSVTVSS VL: DIQMTQSPASQSASLGESVTITCLASQTIGTWLAWYQQKPGKSPQLLIYAAASLADGVPSRFSGGGSGTKFSFKISSLQAEDFVNYYCQQIYSTPYTFGGGTKLEIK : what is it?
≥ 95%
